assay: Quantitative High-Throughput drug screen in 47 multiple myeloma cell lines against the NCATS MIPE library collection: JJN3_DSMZ cell viability assay (AID 1918966; note: nearly all actives have a fitted effect of over 50% in size); conditions: JJN3 myeloma cells viability, CellTiter-Glo ATP, 48 h; series mostly up to 45.8 µM
Inconclusive results are not listed. Active and inactive are the calls of the source. Calls come from the whole dose curve; as a rule, active = well fitted cell-killing curve with a large enough effect; inconclusive = small, poorly fitted or top-dose-only effect, or effect the other way; inactive = no such curve, though single readings can be large or run the other way.
Answer with one of the outcomes active, inactive

As a guide, the following entries are already answered.
1. NC(=O)N1CCC(CC(=O)N2CCC([C@H]3c4ncc(Br)cc4CCc4cc(Cl)cc(Br)c43)CC2)CC1; active
2. C=CC(=O)Nc1ccc2ncnc(Nc3ccc(OCc4cccc(F)c4)c(Cl)c3)c2c1; active
3. C=C(C)[C@@H]1CC[C@]2(C)CC[C@]3(C)[C@H](CC[C@@H]4[C@@]5(C)CC[C@H](O)C(C)(C)[C@H]5CC[C@]43C)[C@@H]12; inactive
4. N#Cc1c(C2CCNCC2)cc(-c2c(O)cccc2OCC2CC2)nc1N; active
5. CON=C(C(=O)N[C@@H]1C(=O)N2C(C(=O)O)=C(CSC(=O)c3ccco3)CS[C@H]12)c1csc(N)n1; inactive

Dear all, I need the recorded test outcome for OCC(O)C(O)C(O)CO (stereo not drawn) , thank you.
active

Please share the test call associated with `COC1=C2C[C@@H](C)C[C@H](OC)[C@@H](O)[C@@H](C)C=C(C)[C@H](OC(N)=O)[C@@H](OC)C=CC=C(C)C(=O)NC(=CC1=O)C2=O` .
active

What was the test verdict on `COc1cc2c(Nc3ccc(Cl)c(Cl)c3F)ncnc2cc1OCC1C[C@@H]2CN(C)C[C@H]2C1` ?
active
